SYSTEM UNDER TEST: Human immunodeficiency virus type 1 reverse transcriptase (Human immunodeficiency virus 1)
ASSAY: HIV-1 reverse transcriptase inhibitory activity against Cys181 mutant using (poly)rC600*(oligo)dGT as template primer.
Below is a list of entries, each paired with its recorded pIC50 value.
Answer as the number alone; pIC50 is minus log10 of concentration in mol/L.

Ask: Name the reported pIC50 value associated with the molecule `COc1ccc(C(C)=O)c(F)c1CCNC(=O)Nc1ccc(Cl)cn1`
Reply: 5.00

Ask: Name the reported pIC50 value associated with the molecule `CN(C)c1ccc(F)c(CCNC(=O)Nc2ccc(Br)cn2)c1F`
Reply: 5.82

Ask: Name the reported pIC50 value associated with the molecule CCC(=O)c1ccc(F)c(C2CC2NC(=O)Nc2ccc(C#N)cn2)c1O (stereo unspecified)
Reply: 7.80

Further cases:
Ask: Name the reported pIC50 value associated with the molecule CCOc1ccc(Cl)c(C2CC2NC(=O)Nc2ccc(Cl)cn2)c1F (stereo unspecified)
Reply: 7.68

Ask: Name the reported pIC50 value associated with the molecule CCOc1ccc(F)c(C2CC2NC(=O)Nc2ccc(Cl)cn2)c1F (stereo unspecified)
Reply: 7.85

Ask: Name the reported pIC50 value associated with the molecule COc1ccc2c(c1)N(C(=O)OC(C)C)C(CSC)C(S)=N2 (stereo unspecified)
Reply: 8.05

###

SYSTEM UNDER TEST: UniProt Q72547
STUDY CONDITIONS: MT4
Description: Inhibitory activity against HIV-1 Ile 100 mutant in MT-4 cells.
Below is a list of entries, each paired with its recorded ED50 value.
Expressed in nM, but write only the number.

Ask: Name the reported ED50 value associated with the molecule CCOc1ccc(F)c(C2CC2NC(=O)Nc2ccc(C#N)cn2)c1Cl (stereo not given)
Reply: 234

Ask: Name the reported ED50 value associated with the molecule `COc1ccc(OC)c(CCNC(=O)Nc2ccc(Cl)cn2)c1F`
Reply: 3800

Ask: Name the reported ED50 value associated with the molecule CCC(=O)c1ccc(F)c(C2CC2NC(=O)Nc2ccc(Cl)cn2)c1O (stereo in doubt; 20)
Reply: 75

Ask: Name the reported ED50 value associated with the molecule COc1ccc2c(c1)N(C(=O)OC(C)C)C(CSC)C(S)=N2 (stereo not given)
Reply: 72

Continue with the next molecule.
Ask: Name the reported ED50 value associated with the molecule CCC(=O)c1ccc(F)c(C2CC2NC(=O)Nc2ccc(Cl)cn2)c1O (stereo in doubt; 19)
Reply: 100

###

SYSTEM UNDER TEST: Human immunodeficiency virus type 1 reverse transcriptase (Human immunodeficiency virus 1, UniProt Q72547)
ASSAY: HIV-1 reverse transcriptase inhibitory activity against Ile 100 mutant using (poly)rC600*(oligo)dGT as template primer.
Below is a list of entries, each paired with its recorded IC50 value.
Expressed in nM, but write only the number.

Ask: Name the reported IC50 value associated with the molecule CC(=O)c1ccc(F)c(C2CC2NC(=O)Nc2ccc(C#N)cn2)c1O (stereo unspecified)
Reply: 13

Ask: Name the reported IC50 value associated with the molecule CCC(=O)c1ccc(F)c(C2CC2NC(=O)Nc2ccc(Cl)cn2)c1O (stereo in doubt; 20)
Reply: 14

Ask: Name the reported IC50 value associated with the molecule `CCOc1ccc(F)c(CCNC(=O)Nc2ccc(Br)cn2)c1Cl`
Reply: 1680

Ask: Name the reported IC50 value associated with the molecule O=C(Nc1ccc(Cl)cn1)NC1CC1c1c(F)ccc(O)c1Cl (stereo unspecified)
Reply: 4100

Ask: Name the reported IC50 value associated with the molecule CCOc1ccc(F)c(C2CC2NC(=O)Nc2ccc(Cl)cn2)c1F (stereo unspecified)
Reply: 81

Ask: Name the reported IC50 value associated with the molecule `COc1ccc(OC)c(CCNC(=O)Nc2ccc(Cl)cn2)c1F`
Reply: 140

Further cases:
Ask: Name the reported IC50 value associated with the molecule CCC(=O)c1ccc(F)c(C2CC2NC(=O)Nc2ccc(Br)cn2)c1O (stereo in doubt; 18)
Reply: 14

Ask: Name the reported IC50 value associated with the molecule CCC(=O)c1ccc(F)c(C2CC2NC(=O)Nc2ccc(Cl)cn2)c1O (stereo in doubt; 13)
Reply: 76

###

SYSTEM UNDER TEST: Human immunodeficiency virus type 1 reverse transcriptase (Human immunodeficiency virus 1) (UniProt Q72547)
STUDY CONDITIONS: MT4
Description: Inhibitory activity against HIV-1 Cys 181 mutant in MT-4 cells.
Below is a list of entries, each paired with its recorded ED50 value.
Expressed in nM, but write only the number.

Ask: Name the reported ED50 value associated with the compound CCOc1ccc(F)c(C2CC2NC(=O)Nc2ccc(C#N)cn2)c1Cl (stereo unspecified)
Reply: 270

Ask: Name the reported ED50 value associated with the compound CC(=O)c1ccc(F)c(C2CC2NC(=O)Nc2ccc(C#N)cn2)c1O (stereo unspecified)
Reply: 230

Ask: Name the reported ED50 value associated with the compound CCC(=O)c1ccc(F)c(C2CC2NC(=O)Nc2ccc(C#N)cn2)c1O (stereo unspecified)
Reply: 46

Ask: Name the reported ED50 value associated with the compound CCOc1ccc(F)c(C2CC2NC(=O)Nc2ccc(Cl)cn2)c1F (stereo unspecified)
Reply: 163

Ask: Name the reported ED50 value associated with the compound CCC(=O)c1ccc(F)c(C2CC2NC(=O)Nc2ccc(Br)cn2)c1O (stereo in doubt; 17)
Reply: 69

Further cases:
Ask: Name the reported ED50 value associated with the compound CC(=O)c1ccc(F)c(C2CC2NC(=O)Nc2ccc(Br)cn2)c1O (stereo unspecified)
Reply: 113

Ask: Name the reported ED50 value associated with the compound CCOc1ccc(Cl)c(C2CC2NC(=O)Nc2ccc(Cl)cn2)c1F (stereo unspecified)
Reply: 104

Ask: Name the reported ED50 value associated with the compound CCOc1ccc(Cl)c(C2CC2NC(=O)Nc2ccc(C#N)cn2)c1F (stereo unspecified)
Reply: 200

Ask: Name the reported ED50 value associated with the compound CCC(=O)c1ccc(F)c(C2CC2NC(=O)Nc2ccc(Cl)cn2)c1O (stereo in doubt; 13)
Reply: 340

###

SYSTEM UNDER TEST: Human immunodeficiency virus type 1 reverse transcriptase (Human immunodeficiency virus 1)
ASSAY: HIV-1 reverse transcriptase inhibitory activity against Wild Type Reverse transcriptase using (poly)rC600*(oligo)dGT as template primer.
PARAMETER: IC50 (nM)
Expressed in nM, but write only the number.

For orientation, consider the following solved cases.
Ask: Name the reported IC50 value associated with the compound `COc1ccc(C(C)=O)c(F)c1CCNC(=O)Nc1ccc(Cl)cn1`
Reply: 109

Ask: Name the reported IC50 value associated with the compound CCC(=O)c1ccc(F)c(C2CC2NC(=O)Nc2ccc(Cl)cn2)c1O (stereo in doubt; 13)
Reply: 9

Ask: Name the reported IC50 value associated with the compound CCC(=O)c1ccc(F)c(C2CC2NC(=O)Nc2ccc(Br)cn2)c1O (stereo in doubt; 17)
Reply: 3.8

Ask: Name the reported IC50 value associated with the compound CCOc1ccc(Cl)c(C2CC2NC(=O)Nc2cc(Cl)cnn2)c1F (stereo not given)
Reply: 5.2

Continue with the next compound.
Ask: Name the reported IC50 value associated with the compound CCC(=O)c1ccc(F)c(C2CC2NC(=O)Nc2ccc(Br)cn2)c1O (stereo in doubt; 18)
Reply: 4.8

###

Test system: MT4
ASSAY: Inhibitory activity against HIV-1 Wild Type in MT-4 cell culture (human T-cell line with 50% human AB serum)
Type: functional
STUDY CONDITIONS: Homo sapiens, MT4; read-out: ED50 (the source's name)
PARAMETER: EC50 (nM)
Expressed in nM, but write only the number.

For orientation, consider the following solved cases.
Ask: Form entry - test system: MT4; read-out: EC50; compound: CCC(=O)c1ccc(F)c(C2CC2NC(=O)Nc2ccc(Br)cn2)c1O (stereo in doubt; 17)
Reply: 58

Ask: Form entry - test system: MT4; read-out: EC50; compound: CCC(=O)c1ccc(F)c(C2CC2NC(=O)Nc2ccc(Cl)cn2)c1O (stereo in doubt; 19)
Reply: 51

Ask: Form entry - test system: MT4; read-out: EC50; compound: `CC(C)Nc1cccnc1N1CCN(C(=O)c2cc3cc(NS(C)(=O)=O)ccc3[nH]2)CC1`
Reply: 320

Ask: Form entry - test system: MT4; read-out: EC50; compound: `O=C1Nc2ccc(Cl)cc2[C@@](C#CC2CC2)(C(F)(F)F)O1`
Reply: 50

Continue with the next compound.
Ask: Form entry - test system: MT4; read-out: EC50; compound: COc1ccc2c(c1)N(C(=O)OC(C)C)C(CSC)C(S)=N2 (stereo unspecified)
Reply: 320

###

SYSTEM UNDER TEST: Human immunodeficiency virus type 1 reverse transcriptase (Human immunodeficiency virus 1)
ASSAY: HIV-1 reverse transcriptase inhibitory activity against Wild Type Reverse transcriptase using (poly)rC600*(oligo)dGT as template primer.
Lab note: compare IC50 with 3 nM, writing Satisfied if less and Not satisfied if equal or more.

Ask: Take the compound O=C(Nc1ccc(Cl)cn1)NC1CC1c1c(F)ccc(O)c1Cl (stereo not given) and say whether its IC50 is less than 3 nM.
Reply: Not satisfied

Ask: Take the compound CC(=O)c1ccc(F)c(C2CC2NC(=O)Nc2ccc(C#N)cn2)c1O (stereo not given) and say whether its IC50 is less than 3 nM.
Reply: Not satisfied

Ask: Take the compound CCC(=O)c1ccc(F)c(C2CC2NC(=O)Nc2ccc(Cl)cn2)c1O (stereo in doubt; 19) and say whether its IC50 is less than 3 nM.
Reply: Not satisfied

Ask: Take the compound CCC(=O)c1ccc(F)c(C2CC2NC(=O)Nc2ccc(Cl)cn2)c1O (stereo in doubt; 20) and say whether its IC50 is less than 3 nM.
Reply: Satisfied

Now for another entry.
Ask: Take the compound CCC(=O)c1ccc(F)c(C2CC2NC(=O)Nc2ccc(C#N)cn2)c1O (stereo not given) and say whether its IC50 is less than 3 nM.
Reply: Not satisfied
